# measurementProtocol: Plasma pharmacokinetic study in rats
# Format: in vivo, rat
# reportedConditions: po, 24.4 umol/kg; rat plasma, i.g. 24.4 μmol/kg, n = 6
assayEndpoint: half-life

Dear colleague, I am looking for the recorded half-life of the following compound: C[C@@]1(O)CC[C@H]2[C@H](CC[C@@H]3[C@@H]2CC[C@]2(C)[C@@H](C(=O)Cn4cnn(-c5ccnc(OCC(F)(F)F)c5)c4=O)CC[C@@H]32)C1
19.8 h

Record request: half-life value, item C[C@@]1(O)CC[C@H]2[C@H](CC[C@@H]3[C@@H]2CC[C@]2(C)[C@@H](C(=O)Cn4cc(C#N)cn4)CC[C@@H]32)C1
3.8 h
